test system: SMMC-7721; test: Cytotoxicity against human SMMC-7721 cells assessed as reduction in cell viability by MTT assay; type: functional, cell-based
value.type: IC50

O=C(C(CNC1CCCC1)c1ccc(Cl)cc1)N1CCN(c2ncnc3sc4c(c23)CCC4)CC1 (stereo unspecified)    386 nM

[in] Consider the compound O=C(C(CNC1CCCCC1)c1ccc(Cl)cc1)N1CCN(c2ncnc3sc4c(c23)CCC4)CC1 (stereo unspecified) and give its measured IC50.
[out] 978 nM

[in] Consider the compound `CC(C)NC[C@@H](C(=O)N1CCN(c2ncnc3c2[C@H](C)C[C@H]3O)CC1)c1ccc(Cl)cc1` and give its measured IC50.
[out] 661 nM

[in] Consider the compound CCNCC(C(=O)N1CCN(c2ncnc3sc4c(c23)CCC4)CC1)c1ccc(Cl)cc1 (stereo unspecified) and give its measured IC50.
[out] 1250 nM

[in] Consider the compound CC(C)NCC(C(=O)N1CCN(c2ncnc3sc4c(c23)CCC4)CC1)c1ccc(Br)cc1 (stereo unspecified) and give its measured IC50.
[out] 521 nM

[in] Consider the compound CCCCNCC(C(=O)N1CCN(c2ncnc3sc4c(c23)CCC4)CC1)c1ccc(Cl)cc1 (stereo unspecified) and give its measured IC50.
[out] 1350 nM
